Parameter log10 Minimum inhibitory concentration: see the listing below.
System: Xanthomonas campestris
study_conditions: triplicate 2
Scale type: logarithmic (base 10). Underlying Minimum inhibitory concentration unit: µM.

Illustrative cases are given below, each with its answer.
KVLSKVHTLLKAVLAL [At02] ... 0.00
GFKLGRKLVKVFKWII [Gr01] ... 0.00
IVNHLVKLFDKGLNSIVNLR [Tc05] ... 2.71
FFGHIWHGARTLFRDVFA [Cs02] ... 1.51
ANRLLEAYKMLLKFLGNLR [Gr02] ... 0.60
GLLFKELQKLIRYQIFIGK [Tc10] ... 2.11
GSLHGFMYKYLKNMVLNLF [Tc06] ... 1.81
GSLHGFMYKYLKTLVLRLY [Zm01] ... 1.20
IKLRNVLKYLFRIDVIKEDIL [Tc03] ... 1.81
GFKDLLKGAAKALVKTVLF [Asc-8, Ascaphin 8, reference compound] ... 0.30

Challenge: Note log10 Minimum inhibitory concentration for the sequence shown: GSLHGFMYKYLKNMVLTLF [At01]
Response given: 2.11

Challenge: Note log10 Minimum inhibitory concentration for the sequence shown: GAKLAKKQVRALGKFFSF [At03]
Response given: 1.51

Challenge: Note log10 Minimum inhibitory concentration for the sequence shown: GSLHGFMYRYLKNMVLNLF [Cs01]
Response given: 1.81

Challenge: Note log10 Minimum inhibitory concentration for the sequence shown: GKILKYLLYLLRKYANLIIR [Tc02]
Response given: 1.20

Challenge: Note log10 Minimum inhibitory concentration for the sequence shown: FFYNVIKIYGNMAGRISK [Cs03]
Response given: 2.71

Challenge: Note log10 Minimum inhibitory concentration for the sequence shown: GLYNFIKVLGRTVFGLYKQF [At04]
Response given: 2.71

Challenge: Note log10 Minimum inhibitory concentration for the sequence shown: LHRLVKLVAALLRGYASKVDTH [Tc08]
Response given: 0.60

* * *

Tested on: Candida albicans
study_conditions: Candida albicans, average of triplicates
Parameter Minimum inhibitory concentration, Average: see the listing below.
Note: unit µM is implicit; provide only the numeric part.

Illustrative cases are given below, each with its answer.
GSLHGFMYKYLKNMVLNLF [Tc06] ... 4.0
GLKDMIKNLAKEAAVKLAGAVINKFSPQPQ [Nat-1, Nattererin-1, reference compound] ... 16.0

Challenge: Note Minimum inhibitory concentration, Average for the sequence shown: GFKLGRKLVKVFKWII [Gr01]
Response given: 1.0

Challenge: Note Minimum inhibitory concentration, Average for the sequence shown: FFGHIWHGARTLFRDVFA [Cs02]
Response given: 32.0

Challenge: Note Minimum inhibitory concentration, Average for the sequence shown: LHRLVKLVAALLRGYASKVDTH [Tc08]
Response given: 4.0

Challenge: Note Minimum inhibitory concentration, Average for the sequence shown: GSLHGFMYRYLKNMVLNLF [Cs01]
Response given: 2.7

Challenge: Note Minimum inhibitory concentration, Average for the sequence shown: GIGKFLHSAKKFGKAFVGEIMNS [Mag-2a, Magainin-2a, reference compound]
Response given: 64.0

Challenge: Note Minimum inhibitory concentration, Average for the sequence shown: GAKLAKKQVRALGKFFSF [At03]
Response given: 128.0

Challenge: Note Minimum inhibitory concentration, Average for the sequence shown: GSLHGFMYKYLKTLVLRLY [Zm01]
Response given: 6.7

Challenge: Note Minimum inhibitory concentration, Average for the sequence shown: ANRLLEAYKMLLKFLGNLR [Gr02]
Response given: 4.0

Challenge: Note Minimum inhibitory concentration, Average for the sequence shown: GLLFKELQKLIRYQIFIGK [Tc10]
Response given: 64.0

Challenge: Note Minimum inhibitory concentration, Average for the sequence shown: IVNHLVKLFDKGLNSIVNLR [Tc05]
Response given: 128.0

Challenge: Note Minimum inhibitory concentration, Average for the sequence shown: FFYNVIKIYGNMAGRISK [Cs03]
Response given: 128.0

* * *

Tested on: Bacillus cereus
study_conditions: Bacillus cereus, CLSI M7-A10, triplicate 1
quantity_kind: Minimum inhibitory concentration (µM)
Note: unit µM is implicit; provide only the numeric part.

Illustrative cases are given below, each with its answer.
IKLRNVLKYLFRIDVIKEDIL [Tc03] ... 128
GSLHGFMYKYLKNMVLNLF [Tc06] ... 64
ANRLLEAYKMLLKFLGNLR [Gr02] ... 4
FFGHIWHGARTLFRDVFA [Cs02] ... 64

Continue with the next sequence.
Challenge: Note Minimum inhibitory concentration for the sequence shown: GFKLGRKLVKVFKWII [Gr01]
Response given: 1

* * *

Test system: Candida albicans
study_conditions: Candida albicans, triplicate 3
The threshold is inclusive: Minimum inhibitory concentration of exactly 8 µM counts as true (1); values below receive false (0).

Challenge: Form field: Minimum inhibitory concentration at least 8 µM? Entry: FFYNVIKIYGNMAGRISK [Cs03]
Response given: true (1)

* * *

Parameter Minimum inhibitory concentration: see the listing below.
System: Bacillus subtilis
study_conditions: Bacillus subtilis, triplicate 2
Note: unit µM is implicit; provide only the numeric part.

Illustrative cases are given below, each with its answer.
FFYNVIKIYGNMAGRISK [Cs03] ... 64
GSLHGFMYKYLKNMVLTLF [At01] ... 16
GFKDLLKGAAKALVKTVLF [Asc-8, Ascaphin 8, reference compound] ... 1

Challenge: Provide the reported Minimum inhibitory concentration (system: Bacillus subtilis) for GSLHGFMYRYLKNMVLNLF [Cs01]
Response given: 8

Challenge: Provide the reported Minimum inhibitory concentration (system: Bacillus subtilis) for GFKLGRKLVKVFKWII [Gr01]
Response given: 1

Challenge: Provide the reported Minimum inhibitory concentration (system: Bacillus subtilis) for GSLHGFMYKYLKTLVLRLY [Zm01]
Response given: 8

Challenge: Provide the reported Minimum inhibitory concentration (system: Bacillus subtilis) for FFGHIWHGARTLFRDVFA [Cs02]
Response given: 4

Challenge: Provide the reported Minimum inhibitory concentration (system: Bacillus subtilis) for GSLHGFMYKYLKNMVLNLF [Tc06]
Response given: 16

Challenge: Provide the reported Minimum inhibitory concentration (system: Bacillus subtilis) for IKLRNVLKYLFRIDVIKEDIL [Tc03]
Response given: 16

Challenge: Provide the reported Minimum inhibitory concentration (system: Bacillus subtilis) for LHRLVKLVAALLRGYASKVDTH [Tc08]
Response given: 2

* * *

System: Pseudomonas aeruginosa
study_conditions: Pseudomonas aeruginosa, CLSI M7-A10, triplicate 1
quantity_kind: Minimum inhibitory concentration
Give me the value, and tack the unit on after it.

FFGHIWHGARTLFRDVFA [Cs02] ... 512 µM
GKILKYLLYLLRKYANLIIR [Tc02] ... 16 µM
GIGDILKNLAKAAGKAALHAVGESL [HSP-4, Hylaseptin-4, reference compound] ... 16 µM

Challenge: Provide the reported Minimum inhibitory concentration (system: Pseudomonas aeruginosa) for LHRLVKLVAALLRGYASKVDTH [Tc08]
Response given: 4 µM

Challenge: Provide the reported Minimum inhibitory concentration (system: Pseudomonas aeruginosa) for GSLHGFMYKYLKTLVLRLY [Zm01]
Response given: 16 µM

* * *

Tested on: Escherichia coli
study_conditions: Escherichia coli, triplicate 2
Procedure: Antimicrobial activity was tested against three categories of human and plant pathogenic microorganisms: Gram-positive (Bacillus subtilis, Bacillus cereus, Staphylococcus aureus), Gram-negative (Escherichia coli, Pseudomonas aeruginosa, Erwinia carotovora, Pseudomonas syringae pv. tabaci, Xanthomonas campestris pv. citri) and yeasts (Candida albicans, Cryptococcus neoformans), as previously reported. […]
Parameter Minimum inhibitory concentration: see the listing below.
Note: unit µM is implicit; provide only the numeric part.

Illustrative cases are given below, each with its answer.
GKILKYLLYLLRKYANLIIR [Tc02] ... 8
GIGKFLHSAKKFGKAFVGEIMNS [Mag-2a, Magainin-2a, reference compound] ... 8
GLLFKELQKLIRYQIFIGK [Tc10] ... 32
GSLHGFMYKYLKNMVLNLF [Tc06] ... 32
FFGHIWHGARTLFRDVFA [Cs02] ... 8

Challenge: Note Minimum inhibitory concentration for the sequence shown: GFKLGRKLVKVFKWII [Gr01]
Response given: 0.5

Challenge: Note Minimum inhibitory concentration for the sequence shown: GLKDMIKNLAKEAAVKLAGAVINKFSPQPQ [Nat-1, Nattererin-1, reference compound]
Response given: 8

Challenge: Note Minimum inhibitory concentration for the sequence shown: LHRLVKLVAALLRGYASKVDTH [Tc08]
Response given: 2

Challenge: Note Minimum inhibitory concentration for the sequence shown: GFKDLLKGAAKALVKTVLF [Asc-8, Ascaphin 8, reference compound]
Response given: 2

Challenge: Note Minimum inhibitory concentration for the sequence shown: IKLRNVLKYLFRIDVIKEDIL [Tc03]
Response given: 64

Challenge: Note Minimum inhibitory concentration for the sequence shown: GSLHGFMYRYLKNMVLNLF [Cs01]
Response given: 32

Challenge: Note Minimum inhibitory concentration for the sequence shown: FFYNVIKIYGNMAGRISK [Cs03]
Response given: 128

Challenge: Note Minimum inhibitory concentration for the sequence shown: GIGDILKNLAKAAGKAALHAVGESL [HSP-4, Hylaseptin-4, reference compound]
Response given: 8
